Entry source: the supplement of paper PMC9233669

System: biotinyl-Met-oxazolone
Test: self-aminoacylation, catalytic enhancement (BMO) (fold over background); higher = more active; k-Seq, kA / k0A0; sequences stand for … in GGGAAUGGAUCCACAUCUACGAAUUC…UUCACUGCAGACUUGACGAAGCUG
Fewer inactive variants are shown than the library holds.
Quick rule: self-aminoacylation of at least 1 means condition met, below that means condition not met.

entry_sequence	classification
CUUACCUUGGUCAUCGAGUGA [Fam2.1 aminoacylation ribozyme variant]	condition met
AUUACUCUGGUCGUCGAGUGA [Fam2.1 aminoacylation ribozyme variant]	condition met
AUUGCCUUGGUCAUCGAGUGA [Fam2.1 aminoacylation ribozyme variant]	condition met
AAGUUUGCUCAAAGUCGCAAG [Fam3.1 aminoacylation ribozyme variant]	condition met
AUUCAUCUAGGUCAUCGGGUC [Fam2.2 aminoacylation ribozyme variant]	condition met
CUACUUCAAAGAAUCAGUCUG [Fam1A.1 aminoacylation ribozyme variant]	condition not met
AUUUCCCUUGUCAUCGAGUGA [Fam2.1 aminoacylation ribozyme variant]	condition met
CUACUUCAUACAAUCGCUCUG [Fam1A.1 aminoacylation ribozyme variant]	condition not met
AGUACCCUGGCCAUCGAGUGA [Fam2.1 aminoacylation ribozyme variant]	condition met
